For each record, write down the corresponding IC50.
# ASSAY_TARGET: PKA (Homo sapiens, UniProt P17612)
Answers are plain numbers, in µM.

A selection of reference data follows.
COMPOUND | ASSAY_TARGET | RECORDED_NUMBER
Cc1[nH]nc(-c2nc3cc4ccccc4cc3[nH]2)c1C(=O)NCC1CCCNC1 (stereo not shown) | PKA (Homo sapiens, UniProt P17612) | 8.99
Cc1[nH]nc(-c2nc3ccc(NC(=O)CC(C)C)cc3[nH]2)c1C(=O)NC1CCN(C)CC1 | PKA (Homo sapiens, UniProt P17612) | 13.1
Cc1[nH]nc(-c2nc3cc(C#N)ccc3[nH]2)c1C(=O)NC1CCNCC1 | PKA (Homo sapiens, UniProt P17612) | 22.6

Now for another entry.
Form field: reported IC50 of Cc1[nH]nc(-c2nc3ccccc3[nH]2)c1C(=O)NC1CCN(C)CC1
20.2

FYI, the data here is from patent US20090131470A1.
